assay: pharmacokinetic profile of EP 1572 after oral administration in healthy male subjects; assay type: in vivo; settings: human, plasma EP 1572, oral, 0.25 mg/kg, mean ± SEM, read-out: AUC (0-300) (converted)
outcome measure: AUC(0-t) (ng·h/mL)
Kindly provide the numeric value in ng·h/mL only, without the unit symbol.

Task: Suppose we examine the compound `CC(C)(N)C(=O)N[C@H](Cc1c[nH]c2ccccc12)C(=O)N[C@H](Cc1c[nH]c2ccccc12)NC=O` ; what AUC(0-t) value has been reported?
Output: 8.67

---

experiment: pharmacokinetic profile of EP 1572 after oral administration in healthy male subjects; format: in vivo; conditions: human, plasma EP 1572, oral, 0.05 mg/kg, mean ± SEM
outcome measure: Cmax (ng/mL)
Kindly provide the numeric value in ng/mL only, without the unit symbol.

Task: Suppose we examine the molecule `CC(C)(N)C(=O)N[C@H](Cc1c[nH]c2ccccc12)C(=O)N[C@H](Cc1c[nH]c2ccccc12)NC=O` ; what Cmax value has been reported?
Output: 0.86

---

assay: pharmacokinetic profile of EP 1572 after oral administration in healthy male subjects; assay type: in vivo; conditions: human, plasma EP 1572, oral, 0.125 mg/kg, mean ± SEM
outcome measure: Tmax

Task: Suppose we examine the compound `CC(C)(N)C(=O)N[C@H](Cc1c[nH]c2ccccc12)C(=O)N[C@H](Cc1c[nH]c2ccccc12)NC=O` ; what Tmax value has been reported?
Output: 1.04 h

---

test: pharmacokinetic profile of EP 1572 after oral administration in healthy male subjects; assay type: in vivo; settings: human, plasma EP 1572, oral, 0.25 mg/kg, mean ± SEM
outcome measure: Cmax
Quote the value and follow it with the unit of measurement.

Task: Suppose we examine the molecule `CC(C)(N)C(=O)N[C@H](Cc1c[nH]c2ccccc12)C(=O)N[C@H](Cc1c[nH]c2ccccc12)NC=O` ; what Cmax value has been reported?
Output: 3.92 ng/mL

---

assay: pharmacokinetic profile of EP 1572 after oral administration in healthy male subjects; type: in vivo; conditions: human, plasma EP 1572, oral, 0.05 mg/kg, mean ± SEM
outcome measure: Tmax (h)
Kindly provide the numeric value in h only, without the unit symbol.

Task: Suppose we examine the compound CC(C)(N)C(=O)N[C@H](Cc1c[nH]c2ccccc12)C(=O)N[C@H](Cc1c[nH]c2ccccc12)NC=O [EP 1572, H-Aib-D-Trp-D-gTrp-CHO] ; what Tmax value has been reported?
Output: 1.25
